# measured-target: Bet_v_1 (Betula pendula)
# Construct: made in house
# procedure-summary: Surface acoustic wave (SAW) interaction studies, determination of Kd
# Format: binding
# conditions: Binding affinity K d (SAW), Bet v 1 immobilized on chip; ligands in 5 mM sodium phosphate buffer pH 7.4
property-label: Kd
Remember to quote the unit after the number.

Lookup result for `O=S(=O)(O)c1cccc2cccc(Nc3ccccc3)c12` ; measured Kd: 32.7 µM

----------
# measured-target: Bet_v_1 (Betula pendula, UniProt P15494)
# Construct: made in house
# Sequence (P15494 whole entry): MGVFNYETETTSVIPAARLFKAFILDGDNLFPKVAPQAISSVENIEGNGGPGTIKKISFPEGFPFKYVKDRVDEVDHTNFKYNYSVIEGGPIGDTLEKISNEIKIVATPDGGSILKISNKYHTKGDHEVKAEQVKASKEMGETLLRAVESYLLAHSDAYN
# procedure-summary: Surface acoustic wave (SAW) interaction studies, determination of Kd
# Format: binding
# conditions: Bet v 1 immobilized on chip; ligands in 5 mM sodium phosphate buffer pH 7.4; read-out: Binding affinity K d (SAW)
# pKd per record follows
// pKd here means minus log10 of the molar concentration (mol/L)

{"columns": ["compound", "pKd"],
 "data": [
  ["CCC(O)/C=C/C1C(O)CC(O)C1CCCCCCCC(=O)O (stereo not shown)", 5.62]
]}

Notebook: CCC1C(=O)CC(O)C1/C=C/C(O)CCCCCCCC(=O)O (stereo not shown) [PPE1, E1 phytoprostanes] , pKd read as 6.30

Entry under test: O=c1c(O[C@@H]2O[C@H](CO)[C@@H](O)[C@H](O)[C@H]2O[C@@H]2O[C@H](CO)[C@@H](O)[C@H](O)[C@H]2O)c(-c2ccc(O)c(O)c2)oc2cc(O)cc(O)c12 [Q3OS, quercetin 3‐O‐sophoroside] . Its pKd was 5.82

pKd recorded for this compound, `CCCCCCCCCCCCCC(=O)O[C@H](CCCCCCCCCCC)CC(=O)O[C@@H]1[C@@H](NC(=O)C[C@@H](CCCCCCCCCCC)OC(=O)CCCCCCCCCCC)[C@H](OC[C@H]2O[C@H](OP(=O)(O)O)[C@H](NC(=O)C[C@H](O)CCCCCCCCCCC)[C@@H](OC(=O)C[C@H](O)CCCCCCCCCCC)[C@@H]2O)O[C@H](CO[C@]2(C(=O)O)C[C@@H](O[C@]3(C(=O)O)C[C@@H](O)[C@@H](O)[C@@H]([C@H](O)CO)O3)[C@@H](O)[C@@H]([C@H](O)CO)O2)[C@H]1OP(=O)(O)O` , is 3.42

----------
# measured-target: Bet v 1 / human legumain (Betula pendula)
# Construct: made in house
# procedure-summary: Bet v 1 in vitro proteolytic degradation assay with legumain
# Assay type: biochemical
# conditions: Bet v 1 20 µM, ligand 100 µM, legumain 2 µM, pH 5.0, 0-24 h, SDS-PAGE
property-label: processing (degradation) of Bet v 1 by legumain

{"columns": ["line-notation", "value-observed"],
 "data": [
  ["O=C1C[C@@H](c2ccc(O)cc2)Oc2cc(O)cc(O)c21", "minor"]
]}

----------
# measured-target: Bet_v_1 (Betula pendula)
# Construct: made in house
# procedure-summary: Surface acoustic wave (SAW) interaction studies, determination of Kd
# Format: binding
# conditions: Kd (SAW, Fig. S1)
property-label: Kd (µM)
Please reply with the bare figure in µM and do not write the unit itself.

So for C[C@H](CCC(=O)O)[C@H]1CC[C@H]2[C@@H]3CC[C@@H]4C[C@H](O)CC[C@]4(C)[C@H]3C[C@H](O)[C@]12C [DOC, sodium deoxycholate, reference compound] , the logged Kd turned out to be 58.8

----------
# measured-target: Bet_v_1 (Betula pendula, UniProt P15494)
# Construct: made in house
# procedure-summary: Surface acoustic wave (SAW) interaction studies, determination of Kd
# Assay type: binding
# conditions: Kd (SAW, Fig. S1), Fig. S1 sensorgrams
property-label: pKd
Entry type: numeric. Quantity: pKd, the -log10 of concentration in molar units.

get_value(item= O=S(=O)(O)c1cccc2cccc(Nc3ccccc3)c12 [ANS, 8‐anilinonaphthalene‐1‐sulfonic acid] , readout=pKd) returns 4.49

----------
# measured-target: Bet v 1 / human cathepsin S (Betula pendula, UniProt P15494)
# Construct: made in house
# procedure-summary: Bet v 1 in vitro proteolytic degradation assay with cathepsin S
# Assay type: biochemical
# conditions: Bet v 1 20 µM, ligand 100 µM, cathepsin S 1 µM, pH 5.0, 0-24 h, SDS-PAGE
property-label: processing (degradation) of Bet v 1 by cathepsin S

{"columns": ["molecule", "value-observed"],
 "data": [
  ["CCC1C(=O)CC(O)C1/C=C/C(O)CCCCCCCC(=O)O (centres unmarked) [PPE1, E1 phytoprostanes]", "strongly retarded"],
  ["O=C1C[C@@H](c2ccc(O)cc2)Oc2cc(O)cc(O)c21", "minor"],
  ["C[C@H](CCC(=O)O)[C@H]1CC[C@H]2[C@@H]3CC[C@@H]4C[C@H](O)CC[C@]4(C)[C@H]3C[C@H](O)[C@]12C [DOC, sodium deoxycholate, reference compound]", "strongly retarded"]
]}
